molecular target: TNK2 (Homo sapiens, UniProt Q07912); test: Kinobead competition assay in K562 extract: TNK2
Sequence (Q07912 whole entry): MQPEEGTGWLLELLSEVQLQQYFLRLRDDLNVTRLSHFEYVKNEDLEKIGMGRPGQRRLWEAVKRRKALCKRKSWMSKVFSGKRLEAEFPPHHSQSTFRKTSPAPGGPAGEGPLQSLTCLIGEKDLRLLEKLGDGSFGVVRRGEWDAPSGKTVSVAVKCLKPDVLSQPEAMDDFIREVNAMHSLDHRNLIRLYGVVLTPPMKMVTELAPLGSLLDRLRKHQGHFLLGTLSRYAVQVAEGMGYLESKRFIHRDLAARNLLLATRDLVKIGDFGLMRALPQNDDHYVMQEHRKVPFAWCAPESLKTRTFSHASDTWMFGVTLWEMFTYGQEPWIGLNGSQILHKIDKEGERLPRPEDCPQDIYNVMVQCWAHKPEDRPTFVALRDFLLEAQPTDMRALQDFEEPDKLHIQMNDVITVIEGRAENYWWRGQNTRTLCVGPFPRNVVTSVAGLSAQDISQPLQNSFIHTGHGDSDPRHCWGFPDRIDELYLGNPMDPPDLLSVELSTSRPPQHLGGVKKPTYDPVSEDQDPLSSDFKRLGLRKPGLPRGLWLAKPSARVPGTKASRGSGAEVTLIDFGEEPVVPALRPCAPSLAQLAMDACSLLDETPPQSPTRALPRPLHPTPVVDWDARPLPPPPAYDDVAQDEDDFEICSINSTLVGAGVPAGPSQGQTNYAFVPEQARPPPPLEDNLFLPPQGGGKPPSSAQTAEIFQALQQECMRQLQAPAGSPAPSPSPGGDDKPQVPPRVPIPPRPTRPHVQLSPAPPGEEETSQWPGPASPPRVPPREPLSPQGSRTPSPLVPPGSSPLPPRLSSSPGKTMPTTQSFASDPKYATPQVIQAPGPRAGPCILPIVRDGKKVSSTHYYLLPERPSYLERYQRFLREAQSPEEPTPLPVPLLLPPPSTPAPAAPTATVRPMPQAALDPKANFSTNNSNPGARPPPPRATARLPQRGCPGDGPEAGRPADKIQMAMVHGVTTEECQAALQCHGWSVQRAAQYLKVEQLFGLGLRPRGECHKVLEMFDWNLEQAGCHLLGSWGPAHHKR
pIC50: −log10 of the molar value.

[
  {
    "smiles structure": "Cl.NCC1(c2nc(-c3ccc(Cl)c(O)c3)c(-c3ccncc3)[nH]2)CCCCC1",
    "experimental system": "TNK2 (Homo sapiens, UniProt Q07912)",
    "pIC50": "< 4.70"
  }
]

* * *

As a worked illustration, we turn to IC50 data collected for CSK (Homo sapiens, UniProt P41240).

[
  {
    "compound": "CN1CCN(c2ccc(Nc3ncc(C#N)c(Nc4ccccc4C(N)=O)n3)cc2)CC1.Cl",
    "result comparator": "=",
    "IC50, µM": 4.1
  },
  {
    "compound": "Cl.NCC1(c2nc(-c3ccc(Cl)c(O)c3)c(-c3ccncc3)[nH]2)CCCCC1",
    "result comparator": "=",
    "IC50, µM": 4.4
  },
  {
    "compound": "CN(C)CC(O)COc1ccc(Nc2ncc([N+](=O)[O-])c(Nc3ccccc3O)n2)cc1.O=C(O)C(F)(F)F (stereo not drawn)",
    "result comparator": ">",
    "IC50, µM": 20
  }
]
